Tested on: anaesthetised Sprague-Dawley male rats
Test: in vivo duration of action, blood pressure test in anaesthetised rats
Set-up: species or system rat
Details: ratio of decay rate of diastolic blood pressure response, AVP 0.1 nmol/kg i.v. to equieffective dose of compound; dibenamine-pretreated rats
Positions of bridges follow the written chain, without caps; N, C: chain ends. Non-standard residues stand in square brackets, D forms with d. Residues, ends and D or L forms follow the SMILES beside them. Orn(iPr) = CC(C)NCCC[C@H](N)C(=O)O; Orn(Pr) = CCCNCCC[C@H](N)C(=O)O; 2Thi = N[C@@H](Cc1cccs1)C(=O)O; Aad = N[C@@H](CCCC(=O)O)C(=O)O; Orn = NCCC[C@H](N)C(=O)O; Dab = NCC[C@H](N)C(=O)O
measured-parameter: in vivo duration relative to AVP
// response body must contain only the number

Identify in vivo duration relative to AVP associated with the molecule CCCNCCC[C@H](NC(=O)[C@@H]1CCCN1C(=O)[C@@H]1CSSC[C@H](N)C(=O)N[C@@H](Cc2ccccc2)C(=O)N[C@@H]([C@@H](C)CC)C(=O)N[C@@H](CC(N)=O)C(=O)N[C@@H](CC(N)=O)C(=O)N1)C(=O)NCC(N)=O [Compound 50] (H-CFINNCP[Orn(Pr)]G-NH2; disulfide 1-6; N-terminus and C-terminus assumed)
2.4

Identify in vivo duration relative to AVP associated with the molecule CC[C@H](C)[C@@H]1NC(=O)[C@H](Cc2ccccc2)NC(=O)[C@@H](N)CSSC[C@@H](C(=O)N2CCC[C@H]2C(=O)N[C@@H](CCN)C(=O)NCC(N)=O)NC(=O)[C@H](CC(N)=O)NC(=O)[C@H](CCCC(N)=O)NC1=O [Compound 11] (H-CFI[Aad](NH2)NCP[Dab]G-NH2; disulfide 1-6)
1.9

Identify in vivo duration relative to AVP associated with the molecule NCCCC[C@H](NC(=O)[C@@H]1CCCN1C(=O)[C@@H]1CSSC[C@H](NC(=O)CNC(=O)CNC(=O)CN)C(=O)N[C@@H](Cc2ccc(O)cc2)C(=O)N[C@@H](Cc2ccccc2)C(=O)N[C@@H](CCC(N)=O)C(=O)N[C@@H](CC(N)=O)C(=O)N1)C(=O)NCC(N)=O [terlipressin, reference compound] (H-GGGCYFQNCPKG-NH2; disulfide 4-9)
9.1

Identify in vivo duration relative to AVP associated with the molecule CC[C@H](C)[C@@H]1NC(=O)[C@H](Cc2ccccc2)NC(=O)[C@@H](N)CSSC[C@@H](C(=O)N2CCC[C@H]2C(=O)N[C@@H](CCCN)C(=O)NCC(N)=O)NC(=O)[C@H](CC(N)=O)NC(=O)[C@H](CCCC(N)=O)NC1=O [Compound 9] (H-CFI[Aad](NH2)NCP[Orn]G-NH2; disulfide 1-6)
1.5

Identify in vivo duration relative to AVP associated with the molecule CC[C@H](C)[C@@H]1NC(=O)[C@H](Cc2ccccc2)NC(=O)[C@@H](N)CSSC[C@@H](C(=O)N2CCC[C@H]2C(=O)N[C@@H](CCN)C(=O)NCC(N)=O)NC(=O)[C@H](CC(N)=O)NC(=O)[C@H](CC(N)=O)NC1=O [Compound 3] (H-CFINNCP[Dab]G-NH2; disulfide 1-6)
1.7

Identify in vivo duration relative to AVP associated with the molecule CC[C@H](C)[C@@H]1NC(=O)[C@H](Cc2cccs2)NC(=O)[C@@H](N)CSSC[C@@H](C(=O)N2CCC[C@H]2C(=O)N[C@@H](CCCNC(C)C)C(=O)NCC(N)=O)NC(=O)[C@H](CC(N)=O)NC(=O)[C@H](CCC(N)=O)NC1=O [Compound 34] (H-C[2Thi]IQNCP[Orn(iPr)]G-NH2; disulfide 1-6)
2.0
